Entry source: PubChem BioAssay

Biological target: L-lactate dehydrogenase (Plasmodium falciparum (isolate CDC / Honduras)) (UniProt Q27743)
Sequence (Q27743 whole entry, looked up): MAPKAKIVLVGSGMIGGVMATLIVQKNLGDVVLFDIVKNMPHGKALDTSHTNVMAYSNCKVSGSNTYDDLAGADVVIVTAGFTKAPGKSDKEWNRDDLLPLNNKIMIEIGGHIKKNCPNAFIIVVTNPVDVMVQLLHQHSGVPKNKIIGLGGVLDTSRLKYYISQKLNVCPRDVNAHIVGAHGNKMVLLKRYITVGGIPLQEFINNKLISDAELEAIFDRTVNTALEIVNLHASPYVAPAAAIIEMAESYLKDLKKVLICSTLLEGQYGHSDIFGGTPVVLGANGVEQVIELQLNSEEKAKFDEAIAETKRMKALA
Test: PfLDH activity inhibition – cell lysate, 3D7 strain, counter-screen for P. falciparum growth inhibition project (AID 2304);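 also: 0% = vehicle and 100% = reference inhibitor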
Settings: P. falciparum 3D7 crude extract, LDH APAD/NBT absorbance; at 2 µM; active compounds read high
quantity: inhibition (%)

In [3]: df
Out[3]:
                  compound_structure_string                              assay_target  reported_result
0  CC(C)(CNCc1ccc(F)c(F)c1)c1nc(-c2ccc(Cl)c(O)c2)c(-c2ccnc(N)n2)[nH]1  L-lactate dehydrogenase (Plasmodium falciparum (isolate CDC / Honduras)) (UniProt Q27743)               -4
1  O=C(Nc1ccc(-c2ccc(-c3nc4ccc(C(F)(F)F)cc4[nH]3)s2)cc1)c1cnc[nH]1  L-lactate dehydrogenase (Plasmodium falciparum (isolate CDC / Honduras)) (UniProt Q27743)                5
2  CCn1c(-c2nonc2N)nc2c(-c3ccccc3)ncc(OCCCNCCCN3CCOCC3)c21  L-lactate dehydrogenase (Plasmodium falciparum (isolate CDC / Honduras)) (UniProt Q27743)               -7
3  Cc1ccc(Cn2cnc3cc(C(=O)Nc4ccc(-c5cccc(CN(C)C)c5)cc4)ccc3c2=O)o1  L-lactate dehydrogenase (Plasmodium falciparum (isolate CDC / Honduras)) (UniProt Q27743)                4
4  CCOc1cc(C(C)C)ccc1C1CCN(CCCCNC(=O)c2ccc(NC(=O)c3ccc(Cl)cc3)cc2)CC1  L-lactate dehydrogenase (Plasmodium falciparum (isolate CDC / Honduras)) (UniProt Q27743)                2
5  c1ccc2c(NCCOCCNc3c4ccccc4nc4ccccc34)c3ccccc3nc2c1  L-lactate dehydrogenase (Plasmodium falciparum (isolate CDC / Honduras)) (UniProt Q27743)                5
6  COc1ccccc1CCNc1nc(C)cc(N[C@@H](Cc2ccccc2)C(=O)Nc2ccccc2)n1  L-lactate dehydrogenase (Plasmodium falciparum (isolate CDC / Honduras)) (UniProt Q27743)                0
7  Cc1[nH]c(C)c(-c2ccc(Oc3ccc(Cl)c(Cl)c3)cc2)c(=O)c1Cl  L-lactate dehydrogenase (Plasmodium falciparum (isolate CDC / Honduras)) (UniProt Q27743)               -1
8  CC(=O)Nc1ccc(C(=O)Nc2cccc(-c3ccc(-c4nc5ccc(F)cc5[nH]4)s3)c2)cn1  L-lactate dehydrogenase (Plasmodium falciparum (isolate CDC / Honduras)) (UniProt Q27743)                3

---

Experiment: inhibition of 3D7 malaria parasite growth – strain 3D7 (AID 2306);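 also: 0% = DMSO wells and 100% = chloroquine plus artemisinin control wells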
Settings: P. falciparum 3D7 erythrocytic growth, LDH absorbance, 72 h; at 2 µM; active compounds read high
quantity: growth inhibition (%)

                                   compound  reported_result
0  O=C(NCc1cccc2ccccc12)c1ccc(CNC2CCN(Cc3ccccc3)CC2)cc1              101
1  N#Cc1ccc(N[C@@H](CC2CCCCC2)C(=O)NCc2cc(Cl)cc(Cl)c2)c2ccccc12               94
2  CC(C)c1ccc(N(CC(=O)N/N=C/c2ccc(C(F)(F)F)cc2)S(=O)(=O)c2ccc(C(F)(F)F)cc2)cc1               91
3  Cc1[nH]c(C)c(-c2ccc(Oc3ccc(Cl)cc3)c(Cl)c2)c(=O)c1Br               97
4  O=C(CN1C(=O)CC1S(=O)(=O)Cc1ccco1)NCCCCCCc1ccc(F)cc1 (stereo not given)               95
5             C=CCn1ccc2c3c(N)nc(N)nc3ccc21               89
6  CCN(CC)CCCN(C(=O)Nc1cc(F)cc(F)c1)c1nc(-c2ccc(F)cc2)cs1               82
7  Cc1[nH]c(C)c(-c2ccc(Oc3cccc(OC(F)(F)F)c3)cc2)c(=O)c1Br              100
8  COc1ccc(N2CCN(CCCCNC(=O)c3ccc(NC(=O)c4ccc(Cl)cc4)cc3)CC2)c(C)c1              100
9  Nc1cc(C=Cc2ccc([N+](=O)[O-])s2)nc2ccccc12               98
